Below, each entry is listed with its recorded pKd.
Biological target: T1, GFP-9S library array, motif 4 ND N98L;D124A (synthetic construct, N98L;D124A)
T1 chain: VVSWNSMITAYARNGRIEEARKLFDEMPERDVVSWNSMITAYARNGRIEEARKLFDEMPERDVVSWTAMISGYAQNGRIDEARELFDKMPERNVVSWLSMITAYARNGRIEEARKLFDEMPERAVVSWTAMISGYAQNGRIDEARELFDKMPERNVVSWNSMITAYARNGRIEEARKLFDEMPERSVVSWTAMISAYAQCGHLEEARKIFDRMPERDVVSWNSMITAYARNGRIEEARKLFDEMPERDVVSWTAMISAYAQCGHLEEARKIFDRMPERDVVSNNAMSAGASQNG
Assay: high-throughput RNA pulldown from lysate on Ni-NTA beads; HRP: 50 mM Tris pH 8, 150 mM NaCl, 1 mM beta-mercaptoethanol, 50 ug/ml BSA, 3 ug/ml yeast RNA, 0.5% heparin; ITC and FP: Tris pH 8, 200 mM KCl, 5% glycerol; MST: 50 mM Tris pH 8, 200 mM NaCl, 1 mM DTT, BSA, heparin, 0.05% Tween 20
Conditions: tags: N-terminal His-eGFP; label: 5' Cy5
# pKd = -log10(concentration in molar units)

INSERT INTO measurements (binder, test_result) VALUES
  ('AUUAGACGUGA (ssRNA) [Cy5-rpoA-G]', 7.15);

Continue with the next binder.
Asked: Entry under review: AUUACACGUGA (ssRNA) [Cy5-rpoA] . Reported pKd?
Given back: 7.32
